Target entity: P2RY2 (Homo sapiens)
Construct: purchased Promega (in-house HiBiT-GPCR construct library, NanoBRET)
Sequence (P41231 whole entry): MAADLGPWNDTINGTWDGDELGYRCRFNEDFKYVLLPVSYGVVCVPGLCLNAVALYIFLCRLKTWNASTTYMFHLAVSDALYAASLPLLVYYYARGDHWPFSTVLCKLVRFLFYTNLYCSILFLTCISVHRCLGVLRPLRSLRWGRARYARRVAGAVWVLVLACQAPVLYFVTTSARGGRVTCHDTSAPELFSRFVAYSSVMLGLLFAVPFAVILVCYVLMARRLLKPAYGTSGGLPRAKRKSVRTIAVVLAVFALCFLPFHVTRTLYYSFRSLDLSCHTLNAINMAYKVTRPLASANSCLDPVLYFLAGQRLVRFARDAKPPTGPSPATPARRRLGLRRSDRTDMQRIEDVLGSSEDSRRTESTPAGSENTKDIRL
Experiment: NanoBRET screen HiBiT-P2RY2 in HEK293
Type: binding
Experimental parameters: P2RY2; tracer 1μM
Classify: TRUE when NanoBRET Fold Response is strictly less than 1; FALSE when NanoBRET Fold Response is not.

Compound	Assigned label
Cc1nc2n(c(=O)c1CCN1CCC(c3noc4cc(F)ccc34)CC1)CCCC2OC(=O)NCCOCCOCCOCCOCCNC(=O)CCc1ccc2n1[B-](F)(F)[N+]1=C(c3ccc[nH]3)C=CC1=C2 (centres unmarked) [Risperidone-2-NB590]	TRUE

Does the reported NanoBRET Fold Response of CC(C)N(CC[C@H](c1ccccc1)c1cc(CCNC(=O)c2ccc(CNC(=O)CCc3ccc4n3[B-](F)(F)[N+]3=C(c5ccc[nH]5)C=CC3=C4)cc2)ccc1O)C(C)C [Tolterodine-BZ-NB590] stay below 1?
FALSE

hey, is NanoBRET Fold Response for O=C(CCOCCOCCOCCOCCNC(=O)CCc1ccc2n1[B-](F)(F)[N+]1=C(c3ccc[nH]3)C=CC1=C2)NCCCN1CCN(C2=Nc3ccccc3Oc3ccc(Cl)cc32)CC1 [Loxapine-a-2-NB590] lower than 1 or not?
FALSE

Say whether its NanoBRET Fold Response is strictly beneath 1. Entry: Cc1cc2c(s1)Nc1ccccc1N=C2N1CCN(CCCNC(=O)CCOCCOCCOCCOCCNC(=O)CCc2ccc3n2[B-](F)(F)[N+]2=C(c4ccc[nH]4)C=CC2=C3)CC1 [Olanzapine-a-2-NB590]
FALSE

The origin of these recorded values is paper PMC8151276.
